- assay-system: UniProtKB Q6RI86
- Sequence (Q6RI86 whole entry): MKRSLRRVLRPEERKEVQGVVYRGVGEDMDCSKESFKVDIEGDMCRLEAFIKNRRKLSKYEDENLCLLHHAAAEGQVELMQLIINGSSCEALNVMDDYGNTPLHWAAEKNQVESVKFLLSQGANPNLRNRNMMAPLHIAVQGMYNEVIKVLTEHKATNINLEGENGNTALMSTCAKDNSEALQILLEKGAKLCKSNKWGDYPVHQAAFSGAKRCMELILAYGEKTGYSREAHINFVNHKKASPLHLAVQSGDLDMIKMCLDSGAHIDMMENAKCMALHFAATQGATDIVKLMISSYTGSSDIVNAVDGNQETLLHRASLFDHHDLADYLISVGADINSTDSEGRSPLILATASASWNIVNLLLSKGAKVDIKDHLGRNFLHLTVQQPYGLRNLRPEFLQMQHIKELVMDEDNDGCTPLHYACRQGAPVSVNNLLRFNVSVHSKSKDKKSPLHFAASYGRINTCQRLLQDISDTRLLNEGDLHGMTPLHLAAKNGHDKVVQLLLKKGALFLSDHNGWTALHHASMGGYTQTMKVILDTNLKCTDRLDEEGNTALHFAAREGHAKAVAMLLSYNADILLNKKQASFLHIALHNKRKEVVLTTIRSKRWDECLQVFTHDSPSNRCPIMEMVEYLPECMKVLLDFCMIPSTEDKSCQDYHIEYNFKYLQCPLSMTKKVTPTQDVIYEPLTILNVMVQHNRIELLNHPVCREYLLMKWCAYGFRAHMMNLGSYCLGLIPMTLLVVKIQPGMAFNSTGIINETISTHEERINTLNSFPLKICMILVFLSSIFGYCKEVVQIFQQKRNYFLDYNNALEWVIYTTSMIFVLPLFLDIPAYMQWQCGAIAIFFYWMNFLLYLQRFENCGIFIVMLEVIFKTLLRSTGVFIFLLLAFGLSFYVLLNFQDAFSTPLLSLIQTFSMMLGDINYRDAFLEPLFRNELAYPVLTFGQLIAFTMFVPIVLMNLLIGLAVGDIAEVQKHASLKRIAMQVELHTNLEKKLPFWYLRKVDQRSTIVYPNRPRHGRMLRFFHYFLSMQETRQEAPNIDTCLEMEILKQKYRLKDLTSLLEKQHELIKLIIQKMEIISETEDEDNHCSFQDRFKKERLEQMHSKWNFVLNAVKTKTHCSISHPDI
- test-description: Elevation of intracellular Ca2+ (Fluo-4) in HEK-293 cells stably transfected with rat TRPA1; agonist and antagonist/desensitizing behaviour
property-label: IC50 (µM)

> print(dat)
                                   molecule  property.label  value.reported
1  C[C@@H]1O[C@@H](Oc2ccc(CN=C=S)cc2)[C@H](O)[C@H](O)[C@H]1O [Moringin]            IC50             3.6

----------
- assay-system: UniProt:Q9ERZ8
- Sequence (Q9ERZ8 whole entry): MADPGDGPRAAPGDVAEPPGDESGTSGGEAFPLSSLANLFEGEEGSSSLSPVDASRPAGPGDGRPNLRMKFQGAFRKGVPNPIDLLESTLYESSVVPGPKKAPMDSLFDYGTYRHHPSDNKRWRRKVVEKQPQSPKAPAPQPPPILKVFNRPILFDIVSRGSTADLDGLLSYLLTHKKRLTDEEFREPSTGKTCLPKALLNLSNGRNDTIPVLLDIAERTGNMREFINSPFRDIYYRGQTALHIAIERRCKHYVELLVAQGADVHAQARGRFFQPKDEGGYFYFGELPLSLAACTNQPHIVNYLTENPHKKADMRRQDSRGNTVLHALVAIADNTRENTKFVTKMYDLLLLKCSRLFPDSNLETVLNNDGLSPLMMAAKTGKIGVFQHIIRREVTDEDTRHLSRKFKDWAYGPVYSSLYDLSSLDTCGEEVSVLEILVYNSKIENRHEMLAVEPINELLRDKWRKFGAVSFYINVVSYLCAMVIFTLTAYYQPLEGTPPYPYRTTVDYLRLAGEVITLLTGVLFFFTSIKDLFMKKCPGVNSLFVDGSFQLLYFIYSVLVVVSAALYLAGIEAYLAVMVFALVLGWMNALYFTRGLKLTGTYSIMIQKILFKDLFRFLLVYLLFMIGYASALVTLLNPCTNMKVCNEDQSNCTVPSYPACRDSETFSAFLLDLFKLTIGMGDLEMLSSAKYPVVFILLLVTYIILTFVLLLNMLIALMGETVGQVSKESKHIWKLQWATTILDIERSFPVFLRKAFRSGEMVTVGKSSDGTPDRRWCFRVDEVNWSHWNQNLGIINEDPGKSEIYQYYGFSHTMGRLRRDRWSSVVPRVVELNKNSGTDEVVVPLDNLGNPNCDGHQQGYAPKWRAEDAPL
- test-description: Elevation of intracellular Ca2+ (Fluo-4) in HEK-293 cells stably transfected with rat TRPV4
- Procedure: Assay of rat TRPA1, TRPV2, TRPV3, TRPV4, TRPM8 or human TRPV1 mediated elevation of intracellular Ca^2+ in transfected HEK-293 cells are been performed as described. […] Cell fluorescence before and after the addition of various concentrations of test compounds and extracts were measured normalizing the effects against the response to ionomycin (4 µM). […] The potency of the compounds (EC50 values) are determined as the concentration required to produce half-maximal increases in [Ca^2+]i. […]
property-label: IC50

> print(dat)
                    structure.smiles.string  value.reported
1  C[C@@H]1O[C@@H](Oc2ccc(CN=C=S)cc2)[C@H](O)[C@H](O)[C@H]1O        > 100 µM
